Data origin, for the record: paper PMC3561853

# reported Kd; entries follow
tgt: T1, SH3A-SH2-SH3B fragment of Vav1 (596-845) (mouse, UniProt P27870 596-845)
T1 sequence (looked up): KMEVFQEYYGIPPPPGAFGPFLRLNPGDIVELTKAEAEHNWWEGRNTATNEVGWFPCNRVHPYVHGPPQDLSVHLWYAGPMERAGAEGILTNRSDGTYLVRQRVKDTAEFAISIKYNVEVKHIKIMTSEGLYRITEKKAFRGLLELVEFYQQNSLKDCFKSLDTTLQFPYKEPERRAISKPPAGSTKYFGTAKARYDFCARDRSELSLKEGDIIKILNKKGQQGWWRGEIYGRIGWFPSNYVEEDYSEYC
test protocol: ITC
Where no end group is shown, it is not given here. [ ]: non-standard residue; d: D form. pY = N[C@@H](Cc1ccc(OP(=O)(O)O)cc1)C(=O)O
Use nM as the unit, but write only the number.

Recorded Kd for EDD[pY]ESPND [SLP76 pY112 peptide] , please?
1850

Recorded Kd for DGD[pY]ESPNE [SLP76 pY128 peptide] , please?
1350
